# Measurement Notes: PK and oral bioavailability in the dog
# Format: in vivo, Beagle dogs
# Experimental Parameters: Beagle, plasma, PO, 5.0 mg/kg, PEG400
Measure Name: Tmax (min)
Numbers only, in min.

Input line: For COP(=O)(C1=C(C(=O)NCc2ccncc2)N=C2C=CC(Cl)=CC21)c1cc(C)cc(C)c1 (stereo not shown) [Compound N] , write its Tmax.
Output line: 42

---

# Experimental Target: HIV reverse transcriptase K103N/Y181C (Human immunodeficiency virus type 1 group M subtype B, UniProt P03366, K702N/Y780C)
# Measurement Notes: Enzyme assay, reverse transcriptase K103N/Y181C
Measure Name: IC50

Hi, could you look up IC50 for each item in my list?
1. COP(=O)(c1ccccc1)c1c(C(=O)NCc2ccncc2)[nH]c2ccc(Cl)cc12 (stereo not shown) [Compound 18ar]
2. NC(=O)c1[nH]c2ccc(Cl)cc2c1P(=O)(c1ccccc1)c1ccccc1 [Compound 27a]

Output line:
["1.66 µM", "> 5 µM"]

Hi, could you look up IC50 for each item in my list?
1. CCOP(=O)(c1cc(C)cc(C)c1)c1c(C(=O)NCc2ccncc2)[nH]c2ccc(Cl)cc12 (stereo not shown)
2. NC(=O)c1[nH]c2ccc(Cl)cc2c1P(=O)(O)c1ccccc1 [Compound 60a]

Output line:
1. > 5 µM
2. > 5 µM

Data provenance: patent US7534809B2
